experiment: Cytotoxicity assay in cells stably expressing PARS1 mutant; settings: human, Cytotoxicity, % of control, average, WI-26 VA4 Flag-PARS1 FA/EA/RL; 100 nM
Reported metric: activity at 72 h, 0.1 µM (%)
One number for each entry, in %.

INPUT: For O[C@H]1CCCN[C@@H]1CCCn1cnc2c(Cl)c(Cl)ccc21 , write its activity at 72 h, 0.1 µM.
OUTPUT: 110

----------
assay: in vitro; conditions: human, Cytotoxicity, % of control, average
Reported metric: activity at 72 h, 0.1 µM (%)
One number for each entry, in %.

INPUT: Tell us which activity at 72 h, 0.1 µM value is on record for O=C(CC1NCCCC1O)Cn1cnc2cc(Br)c(Cl)cc2c1=O (stereo not shown) [HF, Halofuginone, reference compound]
OUTPUT: 42.5

----------
test system: LX2 cells; assay: Determination of collagen level using 3D culture (hydroxyproline); format: cell-based; settings: Homo sapiens, LX-2, read-out: IC50 for collagen level
Reported metric: IC50 (nM)
Give bare numbers, in nM.

INPUT: # return recorded IC50 for entry O[C@H]1CCCN[C@@H]1CCCn1cnc2c(Cl)c(Cl)ccc21
OUTPUT: 43.1

----------
Provide the recorded IC50 for the entries that follow.
Target: PARS1 (Homo sapiens)
Construct: His‐PARS1 (1001–1,512 aa); His; made in house; host or cells: Escherichia coli
Sequence (P07814 1001-1512 limits assumed): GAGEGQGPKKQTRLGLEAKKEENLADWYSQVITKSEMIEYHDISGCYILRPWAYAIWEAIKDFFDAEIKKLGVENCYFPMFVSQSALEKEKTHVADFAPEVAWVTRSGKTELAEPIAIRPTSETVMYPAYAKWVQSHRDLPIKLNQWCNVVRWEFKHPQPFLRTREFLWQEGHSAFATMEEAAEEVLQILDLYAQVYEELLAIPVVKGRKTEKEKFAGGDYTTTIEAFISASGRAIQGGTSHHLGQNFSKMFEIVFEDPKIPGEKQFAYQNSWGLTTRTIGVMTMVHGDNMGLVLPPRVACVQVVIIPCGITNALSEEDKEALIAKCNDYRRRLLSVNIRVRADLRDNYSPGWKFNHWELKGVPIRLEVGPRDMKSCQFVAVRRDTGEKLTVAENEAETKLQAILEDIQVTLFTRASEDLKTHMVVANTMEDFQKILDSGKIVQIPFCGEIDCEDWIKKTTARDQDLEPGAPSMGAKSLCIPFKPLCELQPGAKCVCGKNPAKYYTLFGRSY
Test: In vitro prolylation assay
Assay type: biochemical
Conditions: IC50, 100 μM Pro, 5 mM ATP
Protocol: The enzyme reaction was initiated by the addition of 100 nM purified His‐PARS1 (1001–1,512 aa). After 5 min, the reaction mixture was quenched on Whatman filter paper presoaked with 5% trichloroacetic acid (TCA). […] The filter papers were dried, and radioactivity was quantified using liquid scintillation counter (LSC). After 1 h, the reaction mixture was quenched on Whatman filter paper presoaked with 5% TCA. […] The filter papers were dried, and radioactivity was quantified using LSC.
One number for each entry, in µM.

[
  {
    "Molecule": "O=C(CC1NCCCC1O)Cn1cnc2cc(Br)c(Cl)cc2c1=O (centres unmarked) [HF, Halofuginone, reference compound]",
    "IC50 (µM)": 0.103
  }
]

INPUT: Output measured IC50 for this item: O[C@H]1CCCN[C@@H]1CCCn1cnc2c(Cl)c(Cl)ccc21
OUTPUT: 6.46

----------
assay: Cytotoxicity assay in cells stably expressing PARS1 mutant; settings: human, Cytotoxicity, % of control (single replicates, Experiment #1-#4), WI-26 VA4 Flag-PARS1 FA/EA/RL; 30000 nM
Reported metric: activity at 72 h, 30 µM (%)
Numbers only, in %.

INPUT: Give activity at 72 h, 30 µM for O[C@H]1CCCN[C@@H]1CCCn1cnc2c(Cl)c(Cl)ccc21
OUTPUT: 25.3

----------
assay: in vitro; conditions: human, Cytotoxicity, % of control, average
Reported metric: activity at 72 h, 0.001 µM

INPUT: Annotate the compound O=C(CC1NCCCC1O)Cn1cnc2cc(Br)c(Cl)cc2c1=O (stereo not shown) [HF, Halofuginone, reference compound] with its measured activity at 72 h, 0.001 µM.
OUTPUT: 106%

----------
assay: in vitro; details: human, Cytotoxicity, % of control, average
Reported metric: activity at 72 h, 0.001 µM (%)
Give bare numbers, in %.

INPUT: Tell me activity at 72 h, 0.001 µM reported for O=C(CC1NCCCC1O)Cn1cnc2cc(Br)c(Cl)cc2c1=O (stereo not shown) [HF, Halofuginone, reference compound]
OUTPUT: 101
